Species on record: Rattus norvegicus
Assay: DrugMatrix - Regimen: Daily Repeat
Format: toxicity, organism-based, Sprague-Dawley
Parameters: regimen Daily Repeat, gender Male, age 6-8 weeks
Conditions: in vivo, po, 0 mg/kg, 72 h, tissue Plasma, route oral GAVAGE, dose level Control, time 3 day, vehicle .5 % CMC
Field: ALANINE AMINOTRANSFERASE. Provide a value for each of the molecules that follow.
Give your result as the value with the unit written after it.

>  <molecule>
CCCN1C[C@H](CSC)C[C@@H]2c3cccc4[nH]cc(c34)C[C@H]21 [PERGOLIDE]

>  <ALANINE AMINOTRANSFERASE>
45.33 u/L

$$$$
>  <molecule>
CCCCc1oc2ccccc2c1C(=O)c1cc(I)c(OCCN(CC)CC)c(I)c1

>  <ALANINE AMINOTRANSFERASE>
38.17 u/L

$$$$
>  <molecule>
Cc1nc2n(c(=O)c1CCN1CCC(c3noc4cc(F)ccc34)CC1)CCCC2

>  <ALANINE AMINOTRANSFERASE>
38.17 u/L

$$$$
>  <molecule>
CC(C)(C)NC(=O)[C@@H]1C[C@@H]2CCCC[C@@H]2CN1C[C@@H](O)[C@H](Cc1ccccc1)NC(=O)[C@H](CC(N)=O)NC(=O)c1ccc2ccccc2n1

>  <ALANINE AMINOTRANSFERASE>
43.83 u/L

$$$$
>  <molecule>
Nc1ccn([C@H]2CC[C@@H](CO)O2)c(=O)n1

>  <ALANINE AMINOTRANSFERASE>
49.17 u/L

$$$$
>  <molecule>
CCn1cc(C(=O)O)c(=O)c2cc(F)c(N3CCNCC3)cc21

>  <ALANINE AMINOTRANSFERASE>
49.17 u/L

$$$$
>  <molecule>
CN1CCN(CCCN2c3ccccc3Sc3ccc(Cl)cc32)CC1

>  <ALANINE AMINOTRANSFERASE>
53 u/L

$$$$
>  <molecule>
N=C(N)NCCN1CCCCCCC1

>  <ALANINE AMINOTRANSFERASE>
36.5 u/L

$$$$

# return ALANINE AMINOTRANSFERASE for each item in the list
1. ClC(Cl)Br
2. Cc1ccc(/N=C/N(C)/C=N/c2ccc(C)cc2C)c(C)c1

Result:
1. 55.67 u/L
2. 49.17 u/L

* * *

Provide the recorded ERYTHROCYTE COUNT for the entries that follow.
Species on record: Rattus norvegicus
Test: DrugMatrix - Regimen: Daily Repeat
Format: toxicity, organism-based, Sprague-Dawley
Set-up: regimen Daily Repeat, gender Male, age 6-8 weeks
Settings: in vivo, po, 0 mg/kg, 72 h, tissue Blood, route oral GAVAGE, dose level Control, time 3 day, vehicle 100 % WATER
One number for each entry, in x10E6/uL.

In the examples that follow, each entry is paired with its recorded ERYTHROCYTE COUNT.
>  <compound>
NCCCCCC(=O)O

>  <measurement-units>
x10E6/uL

>  <experimental-result>
5.71

$$$$
>  <compound>
CN(C)CCCN1c2ccccc2Sc2ccc(Cl)cc21

>  <measurement-units>
x10E6/uL

>  <experimental-result>
5.87

$$$$
>  <compound>
C[C@H]1c2cccc(O)c2C(=O)C2=C(O)[C@]3(O)C(=O)C(C(N)=O)=C(O)[C@@H](N(C)C)[C@@H]3[C@@H](O)[C@@H]21.O

>  <measurement-units>
x10E6/uL

>  <experimental-result>
5.57

$$$$
>  <compound>
Clc1cccc(Cl)c1N=C1NCCN1

>  <measurement-units>
x10E6/uL

>  <experimental-result>
5.81

$$$$
>  <compound>
Nc1c2c(nc3ccccc13)CCCC2

>  <measurement-units>
x10E6/uL

>  <experimental-result>
5.8

$$$$

Could you now consider this next compound?
Q: Entry COc1cc2nc(N3CCN(C(=O)C4COc5ccccc5O4)CC3)nc(N)c2cc1OC (stereo unspecified) needs its ERYTHROCYTE COUNT filled in; supply it.
Result: 5.57

// provenance: ChEMBL document CHEMBL3885881
